The reported numbers originate from patent US20220177596A1.

target: T1, human-CD40 monomer (human, UniProt P25942 21-193, limits assumed); assay: SPR 2 pt screen, Ab on protein A
T1 construct: also called hCD40-monomer; human-CD40-monomer protein
T1 sequence (P25942 21-193 limits assumed): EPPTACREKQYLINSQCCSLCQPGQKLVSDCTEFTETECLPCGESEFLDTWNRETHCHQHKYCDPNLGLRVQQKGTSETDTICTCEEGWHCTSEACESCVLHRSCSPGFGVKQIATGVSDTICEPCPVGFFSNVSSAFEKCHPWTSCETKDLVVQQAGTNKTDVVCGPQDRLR
Outcome Measure: koff (s⁻¹)

1. humanized Y1238 hz29 (hz-HC6 / hz-LC4), IgG1.3f (antibody, V domains shown, IgG1.3f heavy constant, common CL; expression supernatant; also called Sup 29) VH: QVQLVQSGAEVKKPGASVKVSCKASGYAFTNYLIEWVRQRPGQGLEWMGVINPGSGGTNYNEKFKGRVTLTADKSISTAYMELSRLRSDDTAVYYCARSQLGRRFDYWGQGTLVTVSS VL: DIQMTQSPSSLSASVGDRVTITCKASQDVRTGVAWYQQKPGQSPKLLIYSASYRNTGVPSRFSGSRSGTDFTFTISSLQAEDIAVYYCQQHYSPPYTFGGGTKVEIK :: 0.00028
2. humanized Y1238 hz10 (hz-HC2 / hz-LC5), IgG1.3f (antibody, V domains shown, IgG1.3f heavy constant, common CL; expression supernatant; also called Sup 10) VH: QVQLVQSGAEVKKPGASVKVSCKASGYAFTNYLIEWVRQAPGQGLEWMGVINPGSGGTNYNEKFKGRVTMTADTSISTAYMELSRLRSDDTAVYYCARSQLGRRFDYWGQGTLVTVSS VL: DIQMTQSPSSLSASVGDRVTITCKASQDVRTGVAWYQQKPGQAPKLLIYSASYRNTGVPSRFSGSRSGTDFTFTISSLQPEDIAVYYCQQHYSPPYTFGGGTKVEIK :: 0.00027
3. humanized Y1238 hz36 (hz-HC8 / hz-LC1), IgG1.3f (antibody, V domains shown, IgG1.3f heavy constant, common CL; expression supernatant; also called Sup 36) VH: QVQLVQSGAEVVKPGASVKVSCKASGYAFTNYLIEWVRQRPGQGLEWMGVINPGSGGTNYNEKFKGRVTLTADKSSSTAYMQLSRLRSDDTAVYFCARSQLGRRFDYWGQGTLVTVSS VL: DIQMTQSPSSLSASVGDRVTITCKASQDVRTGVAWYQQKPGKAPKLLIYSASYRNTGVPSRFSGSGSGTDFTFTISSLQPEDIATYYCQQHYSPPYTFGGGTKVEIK :: 0.00014
4. humanized Y1238 hz44 (hz-HC9 / hz-LC4), IgG1.3f (antibody, V domains shown, IgG1.3f heavy constant, common CL; expression supernatant; also called Sup 44) VH: QVQLVQSGAEVVKPGASVKVSCKASGYAFTNYLIEWVRQRPGQGLEWMGVINPGSGGTNYNEKFKGRVTLTADKSSSTAYMQLSRLRSDDTAVYFCARSQLGRRFDYWGQGTTVTVSS VL: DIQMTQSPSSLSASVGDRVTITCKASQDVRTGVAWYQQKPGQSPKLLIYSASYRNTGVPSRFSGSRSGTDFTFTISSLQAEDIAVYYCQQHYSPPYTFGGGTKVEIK :: 0.00033
5. humanized Y1238 hz39 (hz-HC8 / hz-LC4), IgG1.3f (antibody, V domains shown, IgG1.3f heavy constant, common CL; expression supernatant; also called Sup 39) VH: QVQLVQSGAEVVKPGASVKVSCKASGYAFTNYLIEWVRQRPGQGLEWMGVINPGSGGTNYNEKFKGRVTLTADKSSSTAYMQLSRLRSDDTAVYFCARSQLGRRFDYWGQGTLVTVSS VL: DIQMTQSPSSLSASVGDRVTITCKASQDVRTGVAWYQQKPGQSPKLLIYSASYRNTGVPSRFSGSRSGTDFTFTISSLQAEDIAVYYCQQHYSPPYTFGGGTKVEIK :: 0.0003
6. humanized Y1238 hz51 (hz-HC11 / hz-LC1), IgG1.3f (antibody, V domains shown, IgG1.3f heavy constant, common CL; expression supernatant; also called Sup 51) VH: QVQLVQSGAEVKKPGASVKVSCKASGYAFTNYLIEWVRQRPGQGLEWMGVINPGSGGTNYNEKFKGRVTMTRDKSSSTAYMELSRLRSDDTAVYFCARSQLGRRFDYWGQGTLVTVSS VL: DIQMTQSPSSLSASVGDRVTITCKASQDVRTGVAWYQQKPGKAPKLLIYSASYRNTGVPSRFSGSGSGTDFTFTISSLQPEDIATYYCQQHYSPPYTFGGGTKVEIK :: 0.00025
7. humanized Y1238 hz28 (hz-HC6 / hz-LC3), IgG1.3f (antibody, V domains shown, IgG1.3f heavy constant, common CL; expression supernatant; also called Sup 28) VH: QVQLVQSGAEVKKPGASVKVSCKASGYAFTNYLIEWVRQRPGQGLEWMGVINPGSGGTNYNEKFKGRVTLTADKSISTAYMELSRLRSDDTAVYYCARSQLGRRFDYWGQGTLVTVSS VL: DIQMTQSPSSLSASVGDRVTITCKASQDVRTGVAWYQQKPGQSPKLLIYSASYRNTGVPSRFSGSRSGTDFTFTISSLQPEDIAVYYCQQHYSPPYTFGGGTKVEIK :: 0.00024
8. humanized Y1238 hz16 (hz-HC4 / hz-LC1), IgG1.3f (antibody, V domains shown, IgG1.3f heavy constant, common CL; expression supernatant; also called Sup 16) VH: QVQLVQSGAEVKKPGASVKVSCKASGYAFTNYLIEWVRQAPGQGLEWMGVINPGSGGTNYNEKFKGRVTMTADKSISTAYMELSRLRSDDTAVYYCARSQLGRRFDYWGQGTLVTVSS VL: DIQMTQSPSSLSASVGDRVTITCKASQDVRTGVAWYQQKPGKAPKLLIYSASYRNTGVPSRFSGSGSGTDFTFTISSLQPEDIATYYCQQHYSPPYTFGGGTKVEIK :: 0.00012
9. humanized Y1238 hz6 (hz-HC2 / hz-LC1), IgG1.3f (antibody, V domains shown, IgG1.3f heavy constant, common CL; expression supernatant; also called Sup 6) VH: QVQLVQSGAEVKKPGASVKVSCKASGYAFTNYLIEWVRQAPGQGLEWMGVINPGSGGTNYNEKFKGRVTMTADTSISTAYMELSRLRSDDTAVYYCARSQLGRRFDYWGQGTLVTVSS VL: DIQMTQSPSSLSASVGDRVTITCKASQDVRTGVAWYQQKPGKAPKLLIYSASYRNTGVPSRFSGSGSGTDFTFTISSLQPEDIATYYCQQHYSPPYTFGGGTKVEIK :: 0.00012
10. humanized Y1238 hz19 (hz-HC4 / hz-LC4), IgG1.3f (antibody, V domains shown, IgG1.3f heavy constant, common CL; expression supernatant; also called Sup 19) VH: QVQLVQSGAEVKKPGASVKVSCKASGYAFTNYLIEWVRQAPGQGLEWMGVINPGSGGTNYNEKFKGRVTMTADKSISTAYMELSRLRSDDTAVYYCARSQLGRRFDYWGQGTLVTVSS VL: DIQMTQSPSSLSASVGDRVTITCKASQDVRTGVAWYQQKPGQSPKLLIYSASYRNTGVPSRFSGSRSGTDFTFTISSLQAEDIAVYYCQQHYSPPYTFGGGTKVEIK :: 0.00028
